- protocol_summary: in vitro
- condition_details: PAMPA
- Description: Permeability of compound in PBS/EtOH buffer (7:3) PAMPA-BBB assay
Answer no if Papp is under 10 ×10⁻⁶ cm/s, and yes if it is 10 ×10⁻⁶ cm/s or more.

Prompt: // inclusive: Papp at least 10 ×10⁻⁶ cm/s? input: COc1cc2c(cc1OCc1ccccc1)CCC(C)(CC(=O)NCCCCCCCCCNc1c3c(nc4cc(Cl)ccc14)CCCC3)O2 (stereo not given)
Response: yes

Prompt: // inclusive: Papp at least 10 ×10⁻⁶ cm/s? input: COc1cc2c(cc1O)CCC(C)(CCNCCCCCCCNc1c3c(nc4cc(Cl)ccc14)CCCC3)O2 (stereo not given)
Response: yes

Prompt: // inclusive: Papp at least 10 ×10⁻⁶ cm/s? input: COc1cc2c(cc1O)CCC(C)(CCNCCOCCOCCNc1c3c(nc4cc(Cl)ccc14)CCCC3)O2 (stereo not given)
Response: no

Prompt: // inclusive: Papp at least 10 ×10⁻⁶ cm/s? input: COc1cc2c(cc1OCc1ccccc1)CCC(C)(CC(=O)NCCCCCCCCNc1c3c(nc4cc(Cl)ccc14)CCCC3)O2 (stereo not given)
Response: yes

Prompt: // inclusive: Papp at least 10 ×10⁻⁶ cm/s? input: COc1cc2c(cc1O)CCC(C)(CCN)O2 (stereo not given)
Response: no
